# ASSAY COMMENT: Biodistribution experiments in normal mice after i.v. injection
# Assay type: in vivo
# PARTICULARS: male, ddY, mouse, in vivo, iv, total radioactivity, mice, i.v., 60 min after injection, mean (SD); read-out: Biodistribution of radioactivity, Small-intestine
Where a SMILES comes first, the peptide text is derived from it. [ ]: non-standard residue; d: D form. The star is where a group is joined. DOTA = O=C(O)CN1CCN(CC(=O)O)CCN(CC(=O)*)CCN(CC(=O)O)CC1
OBSERVABLE: tissue uptake dose at 1 h (%ID)
Give bare numbers, in %ID.

Could you share which tissue uptake dose at 1 h value was measured for O=C(O)C[C@@H](NC(=O)[C@@H](CC(=O)O)NC(=O)[C@@H](CC(=O)O)NC(=O)[C@@H](CC(=O)O)NC(=O)[C@@H](CC(=O)O)NC(=O)[C@@H](CC(=O)O)NC(=O)[C@@H](CC(=O)O)NC(=O)[C@@H](CC(=O)O)NC(=O)[C@@H](CC(=O)O)NC(=O)[C@@H](CC(=O)O)NC(=O)[C@@H](CC(=O)O)NC(=O)CN1CCN(CC(=O)O)CCN(CC(=O)O)CCN(CC(=O)O)CC1)C(=O)O [^67Ga-DOTA-(D-Asp)11, metal not drawn] ({DOTA}-[dD][dD][dD][dD][dD][dD][dD][dD][dD][dD][dD]-OH) ? 0.07

* * *

# ASSAY COMMENT: Biodistribution experiments in normal mice after i.v. injection
# Format: in vivo
# PARTICULARS: male, ddY, mouse, in vivo, iv, total radioactivity, Biodistribution of radioactivity, Brain
Where a SMILES comes first, the peptide text is derived from it. [ ]: non-standard residue; d: D form. The star is where a group is joined. DOTA = O=C(O)CN1CCN(CC(=O)O)CCN(CC(=O)*)CCN(CC(=O)O)CC1
OBSERVABLE: tissue uptake dose at 3 h (%ID)
Give bare numbers, in %ID.

Record excerpt, results attached:
INSERT INTO assay_data (molecule, unit, reported_value) VALUES
  ('O=C(O)C[C@@H](NC(=O)[C@@H](CC(=O)O)NC(=O)[C@@H](CC(=O)O)NC(=O)[C@@H](CC(=O)O)NC(=O)[C@@H](CC(=O)O)NC(=O)CN1CCN(CC(=O)O)CCN(CC(=O)O)CCN(CC(=O)O)CC1)C(=O)O [^67Ga-DOTA-(D-Asp)5, metal not drawn] ({DOTA}-[dD][dD][dD][dD][dD]-OH)', '%ID', 0.01),
  ('O=C(O)CC[C@H](NC(=O)[C@H](CCC(=O)O)NC(=O)[C@H](CCC(=O)O)NC(=O)[C@H](CCC(=O)O)NC(=O)[C@H](CCC(=O)O)NC(=O)[C@H](CCC(=O)O)NC(=O)[C@H](CCC(=O)O)NC(=O)[C@H](CCC(=O)O)NC(=O)[C@H](CCC(=O)O)NC(=O)[C@H](CCC(=O)O)NC(=O)[C@H](CCC(=O)O)NC(=O)[C@H](CCC(=O)O)NC(=O)[C@H](CCC(=O)O)NC(=O)[C@H](CCC(=O)O)NC(=O)CN1CCN(CC(=O)O)CCN(CC(=O)O)CCN(CC(=O)O)CC1)C(=O)O [^67Ga-DOTA-(L-Glu)14, metal not drawn]', '%ID', 0.03);

In the following, a different molecule is considered.
Could you share which tissue uptake dose at 3 h value was measured for O=C(O)C[C@@H](NC(=O)[C@@H](CC(=O)O)NC(=O)CN1CCN(CC(=O)O)CCN(CC(=O)O)CCN(CC(=O)O)CC1)C(=O)O [^67Ga-DOTA-(D-Asp)2, metal not drawn] ({DOTA}-[dD]-[dD]-OH) ? 0.01
